Target: Epoxide hydrolase 1 (Homo sapiens) (UniProt P07099)
Sequence (P07099 whole entry): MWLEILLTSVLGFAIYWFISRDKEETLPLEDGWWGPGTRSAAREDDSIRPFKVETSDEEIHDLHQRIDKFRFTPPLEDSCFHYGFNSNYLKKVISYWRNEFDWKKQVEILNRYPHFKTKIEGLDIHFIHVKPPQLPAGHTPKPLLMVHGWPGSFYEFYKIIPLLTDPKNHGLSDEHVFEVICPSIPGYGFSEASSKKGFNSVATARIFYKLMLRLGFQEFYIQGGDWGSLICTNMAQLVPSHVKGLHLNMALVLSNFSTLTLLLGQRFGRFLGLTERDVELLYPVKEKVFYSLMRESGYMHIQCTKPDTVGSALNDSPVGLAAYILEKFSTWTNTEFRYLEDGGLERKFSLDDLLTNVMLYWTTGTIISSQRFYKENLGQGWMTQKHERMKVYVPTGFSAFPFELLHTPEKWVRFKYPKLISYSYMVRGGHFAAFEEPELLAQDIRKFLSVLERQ
Assay: Inhibition of microsomal epoxide hydrolase in pooled human liver microsomes assessed as enzyme activity using styrene oxide as substrate at 10 uM incubated for 10 mins by UV-HPLC analysis relative to control
Set-up: scale not given: the % may be the effect or the level left
READOUT TYPE: Activity (%)

CHEMICAL STRUCTURE | TARGET OR SYSTEM | Activity (%)
O=C(NCCCc1ccccc1)N[C@@H](CO)c1ccccc1 | Epoxide hydrolase 1 (Homo sapiens) (UniProt P07099) | 102
C[C@H](NC(=O)NCCCc1ccc(S(N)(=O)=O)cc1)c1ccccc1 | Epoxide hydrolase 1 (Homo sapiens) (UniProt P07099) | 99.9
O=C(NCCCc1ccccc1)N[C@H]1CCCc2ccccc21 | Epoxide hydrolase 1 (Homo sapiens) (UniProt P07099) | 106
C[C@@H](NC(=O)NCCCc1ccccc1)C1CCCCC1 | Epoxide hydrolase 1 (Homo sapiens) (UniProt P07099) | 103
C[C@@H](NC(=O)NCCCc1ccc(S(N)(=O)=O)cc1)c1ccccc1 | Epoxide hydrolase 1 (Homo sapiens) (UniProt P07099) | 101
O=C(NCCCc1ccccc1)N1CCC[C@H]1c1ccccc1 | Epoxide hydrolase 1 (Homo sapiens) (UniProt P07099) | 99.8
C[C@H](NC(=O)NCCCc1ccccc1)c1cccc2ccccc12 | Epoxide hydrolase 1 (Homo sapiens) (UniProt P07099) | 102
O=C(NCCCc1ccccc1)N1CCC[C@@H]1c1ccccc1 | Epoxide hydrolase 1 (Homo sapiens) (UniProt P07099) | 101
C[C@@H](NC(=O)NCCCc1ccccc1)c1ccccc1 | Epoxide hydrolase 1 (Homo sapiens) (UniProt P07099) | 102
CC[C@@H](NC(=O)NCCCc1ccccc1)c1ccccc1 | Epoxide hydrolase 1 (Homo sapiens) (UniProt P07099) | 103
CC[C@H](C)NC(=O)NCCCc1ccccc1 | Epoxide hydrolase 1 (Homo sapiens) (UniProt P07099) | 101
C[C@H](NC(=O)NCCCc1ccccc1)C1CCCCC1 | Epoxide hydrolase 1 (Homo sapiens) (UniProt P07099) | 99.4

----------
Biological target: Epoxide hydrolase 1 (Homo sapiens)
Experiment: Inhibition of microsomal epoxide hydrolase in pooled human liver microsomes assessed as enzyme activity using styrene oxide as substrate at 10 uM incubated for 10 mins by UV-HPLC analysis relative to control
Design: scale not given: the % may be the effect or the level left
READOUT TYPE: Activity (%)

CHEMICAL STRUCTURE | TARGET OR SYSTEM | UNITS LABEL | QUANTITATIVE RESULT
C[C@@H](NC(=O)NCCCc1ccccc1)c1cccc2ccccc12 | Epoxide hydrolase 1 (Homo sapiens) | % | 98.7
O=C(NCCCc1ccccc1)N[C@H](CO)c1ccccc1 | Epoxide hydrolase 1 (Homo sapiens) | % | 107
O=C(NCCCc1ccccc1)N[C@@H]1CCCc2ccccc21 | Epoxide hydrolase 1 (Homo sapiens) | % | 106

----------
Target: Bifunctional epoxide hydrolase 2 (Homo sapiens)
Sequence (P34913 whole entry): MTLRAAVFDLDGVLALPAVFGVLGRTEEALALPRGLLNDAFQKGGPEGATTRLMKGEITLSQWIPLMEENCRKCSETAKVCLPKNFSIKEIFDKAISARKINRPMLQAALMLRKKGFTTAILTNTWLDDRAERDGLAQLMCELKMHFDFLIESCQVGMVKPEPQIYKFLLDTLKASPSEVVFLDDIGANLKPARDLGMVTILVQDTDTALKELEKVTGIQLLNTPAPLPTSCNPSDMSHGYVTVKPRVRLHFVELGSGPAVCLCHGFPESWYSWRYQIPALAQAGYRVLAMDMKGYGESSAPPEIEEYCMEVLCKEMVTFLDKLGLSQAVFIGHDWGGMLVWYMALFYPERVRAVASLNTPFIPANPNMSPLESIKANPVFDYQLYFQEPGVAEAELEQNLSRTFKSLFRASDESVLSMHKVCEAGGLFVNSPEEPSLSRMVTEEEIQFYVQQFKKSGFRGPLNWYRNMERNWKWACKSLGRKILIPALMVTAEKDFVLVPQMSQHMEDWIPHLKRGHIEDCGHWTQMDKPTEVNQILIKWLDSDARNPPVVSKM
Test: Inhibition of soluble epoxide hydrolase (unknown origin) using 14,15-EET as substrate incubated for 20 mins by LC-MS/MS analysis
READOUT TYPE: IC50 (nM)

Example entries and their recorded answers appear below.
CHEMICAL STRUCTURE | IC50 [nM]
O=C(NCCCc1ccccc1)N[C@H]1CCc2ccccc21 | 65
CC[C@@H](NC(=O)NCCCc1ccccc1)c1ccccc1 | 4500
CC[C@H](NC(=O)NCCCc1ccccc1)c1ccccc1 | 36
O=C(NCCCc1ccccc1)NCc1ccccc1 | 3260
O=C(NCCCc1ccccc1)N[C@H]1CCCc2ccccc21 | 13

a = C[C@@H](NC(=O)NCCCc1ccccc1)c1cccc2ccccc12
b = O=C(NCCCc1ccccc1)N[C@H](CO)c1ccccc1
Would you let me know which has the greater IC50 value, a or b ? Let me know the label of the one you choose.
b
(b: 20000 nM, a: 364 nM)
